molecular target: recombinant human FLAP protein (Homo sapiens); test: FLAP binding assay (Scintillation Proximity Assay, displacement of [125I]L-691,831); conditions: recombinant human FLAP membranes, [125I]L-691,831 probe; read-out: FLAP SPA IC50
measured.endpoint: IC50 (nM)
API: value field is a number in nM; no unit string.

# smiles.string, unit.descriptor, meas.value
rows = [
    ("Nc1ncc(-c2ccc(C3(c4noc(-c5cccnc5)n4)CCOCC3)cc2)cn1", "nM", 27),
    ("Nc1ncc(-c2ccc(C3(c4noc(-c5cnn(CC(=O)NC6CCOCC6)c5)n4)CCC3)cc2)cn1", "nM", 1.2),
]

Looking up Nc1ncc(-c2ccc(C3(c4noc(-c5cnc(N6CCNC(=O)C6)cn5)n4)CCC3)cc2)cn1 , I see its IC50 listed as 2.3

Looking up Nc1cc(-c2nc(C3(c4ccc(-c5cnc(N)nc5)cc4)CCC3)no2)ccn1 , I see its IC50 listed as 3.7

###

biological target: recombinant human FLAP protein (Homo sapiens); assay: FLAP binding assay (Scintillation Proximity Assay, displacement of [125I]L-691,831); conditions: recombinant human FLAP membranes, [125I]L-691,831 probe; read-out: FLAP SPA IC50
measured.endpoint: pIC50
In textbook form, pIC50 equals minus log to base ten of the concentration in mol/L.

# compound, measured.endpoint, meas.value
data = [
    ("Cc1ccc(-c2nc(C3(c4ccc(-c5cnc(N)nc5)cc4)CCC3)no2)cc1", "pIC50", 8.44),
    ("NC(=O)c1ccc(-c2nc(C3(c4ccc(-c5cnc(N)nc5)cc4)CCC3)no2)cn1", "pIC50", 8.68),
    ("Cc1ccc(-c2nc(C3(c4ccc(-c5cnc(N)nc5)cc4)CCC3)no2)cn1", "pIC50", 8.46),
]

Looking up CC(CO)n1cc(-c2nc(C3(c4ccc(-c5cnc(N)nc5)cc4)CCC3)no2)cn1 (stereo not shown) , I see its pIC50 listed as 8.51

###

Entries and their pIC50 values follow.
Target: recombinant human FLAP protein (Homo sapiens)
Sequence (P20292 1-161): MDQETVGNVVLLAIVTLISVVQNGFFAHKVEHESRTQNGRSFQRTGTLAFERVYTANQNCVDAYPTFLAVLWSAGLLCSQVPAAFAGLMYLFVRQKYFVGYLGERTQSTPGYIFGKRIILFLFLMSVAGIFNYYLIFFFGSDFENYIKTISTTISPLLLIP
Test: FLAP binding assay (Scintillation Proximity Assay, displacement of [125I]L-691,831)
Details: recombinant human FLAP membranes, [125I]L-691,831 probe; read-out: FLAP SPA IC50
In textbook form, pIC50 equals minus log to base ten of the concentration in mol/L.

For orientation, consider the following solved cases.
# compound, pIC50
rows = [
    ("CN(C)C(=O)Cn1cc(-c2nc(C3(c4ccc(-c5ccc(N)nc5)cc4)CCC3)no2)cn1 [Example 301]", 8.22),
    ("Nc1ncc(-c2ccc(C3(c4noc(-c5ccc(=O)[nH]c5)n4)CCC3)cc2)cn1 [Example 91]", 8.43),
]

Looking up Nc1ncc(-c2ccc(C3(c4noc(-c5ccc(C(=O)N6CCC6)nc5)n4)CCC3)cc2)cn1 [Example 70] , I see its pIC50 listed as 8.52

Looking up CN(C(=O)Cn1cc(-c2nc(C3(c4ccc(-c5cnc(N)nc5)cc4)CCC3)no2)cn1)C1CCOCC1 [Example 235] , I see its pIC50 listed as 8.77

###

Entries and their IC50 values follow.
Molecular target: recombinant human FLAP protein (Homo sapiens)
Sequence (P20292 1-161): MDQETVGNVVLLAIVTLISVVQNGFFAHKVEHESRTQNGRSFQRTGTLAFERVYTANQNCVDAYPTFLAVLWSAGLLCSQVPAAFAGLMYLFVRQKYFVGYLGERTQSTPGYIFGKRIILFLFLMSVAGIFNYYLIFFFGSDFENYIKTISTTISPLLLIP
Experiment: FLAP binding assay (Scintillation Proximity Assay, displacement of [125I]L-691,831)
Conditions: recombinant human FLAP membranes, [125I]L-691,831 probe; read-out: FLAP SPA IC50
API: value field is a number in nM; no unit string.

# smiles.string, meas.value
records = [
    ("COc1cccc(-c2nc(C3(c4ccc(-c5cnc(N)nc5)cc4)CCC3)no2)c1", 3.7),
    ("COc1ccc(-c2nc(C3(c4ccc(-c5cnc(N)nc5)cc4)CCC3)no2)cc1OC", 4.4),
    ("Nc1ncc(-c2ccc(C3(c4noc(N5CCC[C@H]5CO)n4)CCC3)cc2)cn1", 26),
    ("COCCNc1cc(-c2nc(C3(c4ccc(-c5cnc(N)nc5)cc4)CCC3)no2)ccn1", 2.9),
    ("Nc1ncc(-c2ccc(C3(c4noc(-c5c[nH]nn5)n4)CCC3)cc2)cn1", 4.7),
    ("CCNC(=O)c1nc(C2(c3ccc(-c4cnc(N)nc4)cc3)CCC2)no1", 170),
]

Looking up CCn1cccc(-c2nc(C3(c4ccc(-c5cnc(N)nc5)cc4)CCC3)no2)c1=O , I see its IC50 listed as 5.9

Looking up CNc1cnc(-c2nc(C3(c4ccc(-c5cnc(N)nc5)cc4)CCC3)no2)cn1 , I see its IC50 listed as 2.1

###

Entries and their pIC50 values follow.
Target: recombinant human FLAP protein (Homo sapiens, UniProt P20292)
Sequence (P20292 1-161): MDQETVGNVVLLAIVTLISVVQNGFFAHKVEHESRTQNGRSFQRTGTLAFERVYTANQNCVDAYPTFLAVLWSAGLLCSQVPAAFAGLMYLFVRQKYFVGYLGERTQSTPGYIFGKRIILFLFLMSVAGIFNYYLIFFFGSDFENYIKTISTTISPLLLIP
Assay: FLAP binding assay (Scintillation Proximity Assay, displacement of [125I]L-691,831)
Conditions: recombinant human FLAP membranes, [125I]L-691,831 probe; read-out: FLAP SPA IC50
In textbook form, pIC50 equals minus log to base ten of the concentration in mol/L.

# smiles.string, pIC50
data = [
    ("CN(C)C(=O)Cn1cc(-c2nc(C3(c4ccc(-c5cnc6[nH]ccc6n5)cc4)CCC3)no2)cn1", 8.55),
    ("Nc1ncc(-c2ccc(C3(c4noc(-c5cnc(N)nc5)n4)CCC3)cc2)cn1", 8.54),
]

Looking up Cc1ncc(-c2nc(C3(c4ccc(-c5cnc(N)nc5)cc4)CCC3)no2)[nH]1 , I see its pIC50 listed as 8.68

Looking up CC(=O)N1CCN(CCn2cc(-c3nc(C4(c5ccc(-c6cnc(N)nc6)cc5)CCC4)no3)cn2)CC1 , I see its pIC50 listed as 8.07

###

Target: recombinant human FLAP protein (Homo sapiens)
Sequence (P20292 1-161): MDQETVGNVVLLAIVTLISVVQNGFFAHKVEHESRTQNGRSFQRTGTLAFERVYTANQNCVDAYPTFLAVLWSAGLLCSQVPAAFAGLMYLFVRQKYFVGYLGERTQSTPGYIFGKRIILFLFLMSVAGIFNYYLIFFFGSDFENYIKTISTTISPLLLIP
Test: FLAP binding assay (Scintillation Proximity Assay, displacement of [125I]L-691,831)
Details: recombinant human FLAP membranes, [125I]L-691,831 probe; read-out: FLAP SPA IC50
measured.endpoint: pIC50
In textbook form, pIC50 equals minus log to base ten of the concentration in mol/L.

# compound, measured.endpoint, meas.value
data = [
    ("CCNc1cnc(-c2nc(C3(c4ccc(-c5cnc(N)nc5)cc4)CCC3)no2)cn1", "pIC50", 9.00),
]

As a next step, examine the compound that follows.
Looking up Cn1cc(-c2nc(C3(c4ccc(-c5cnc(N)cn5)cc4)CCC3)no2)cn1 , I see its pIC50 listed as 9.15

###

target: recombinant human FLAP protein (Homo sapiens, UniProt P20292); test: FLAP binding assay (Scintillation Proximity Assay, displacement of [125I]L-691,831); conditions: recombinant human FLAP membranes, [125I]L-691,831 probe; read-out: FLAP SPA IC50
measured.endpoint: IC50 (nM)
API: value field is a number in nM; no unit string.

For orientation, consider the following solved cases.
# compound, test.target, meas.value
rows = [
    ("Nc1ccc(-c2ccc(C3(c4noc(-c5cnn(C6COC6)c5)n4)CCC3)cc2)cn1", "recombinant human FLAP protein (Homo sapiens, UniProt P20292)", 5.3),
    ("Nc1ncc(-c2ccc(C3(c4noc(-c5cccc(S(N)(=O)=O)c5)n4)CCC3)cc2)cn1", "recombinant human FLAP protein (Homo sapiens, UniProt P20292)", 15),
    ("Nc1ncc(-c2ccc(C3(c4noc(-c5cnn(CC(=O)NCC6CCCO6)c5)n4)CCC3)cc2)cn1 (stereo not drawn)", "recombinant human FLAP protein (Homo sapiens, UniProt P20292)", 2.8),
    ("Nc1ncc(-c2ccc(C3(c4noc(N5CCCCC5)n4)CCC3)cc2)cn1", "recombinant human FLAP protein (Homo sapiens, UniProt P20292)", 6.5),
]

The value of IC50 recorded for CCN(CC)C(=O)n1cc(-c2nc(C3(c4ccc(-c5cnc(N)nc5)cc4)CCC3)no2)cn1 when tested on recombinant human FLAP protein (Homo sapiens, UniProt P20292) reads 3

The value of IC50 recorded for CN(C)S(=O)(=O)n1cc(-c2nc(C3(c4ccc(-c5cnc(N)nc5)cc4)CCC3)no2)cn1 when tested on recombinant human FLAP protein (Homo sapiens, UniProt P20292) reads 10.4

Entry source: patent US8580829B2
